# OD450 nm per record follows
test target: T1, biotinylated hBLyS-ECD (human, UniProt Q9Y275 134-285, biotinylated with Biotin-X-X-NHS (molar ratio 7:1); sites not stated)
T1 construct: also called biotinylated immunogen; biotinylated hBLvS-ECD
T1 sequence (Q9Y275 134-285): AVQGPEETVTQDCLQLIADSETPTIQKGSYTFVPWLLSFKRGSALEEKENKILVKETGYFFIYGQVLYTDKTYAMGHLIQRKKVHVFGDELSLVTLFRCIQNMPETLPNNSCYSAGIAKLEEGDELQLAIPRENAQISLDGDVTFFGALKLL
assay summary: ELISA on captured biotinylated hBLyS-ECD; antibody 0 nM (background)
Form entry: value (OD450 nm) — number only.

Recorded OD450 nm, per entry:
c111D10D6G3 (antibody, V domains shown) VH: QVQLQQPGAELVKPGASVKMSCKASGYTFTRHWITWVKQRPGQGLEWIGDIFPGSGSINYNEKFKSEATLTVEKSSSTAYMQLSSLTSEDSAVYYCARGDVDVWGTGTTVTVSS VL: DIQMTQSPSSLSASLGERVSLTCRASQEIRGYLSWLQQKPNGTIKRLIYAASTLDSGVPKRFSATRSGSDFSLTISSLESEDFADYYCLQYASYPFTFGSGTKLEIK    0.105
c97A3C2H4 (antibody, V domains shown, also called chimeric antibody c97A3C2H4) VH: EVKLVESGGGLVQPGGSLKLSCAASGFTFSTYTMSWVRQTPEKRLEWVAYISYGGGSTSYPDTVKGRFTISRDNAKNTLYLQMSSLKSEDTAIYYCTRHVTVVENSMDYWGQGTSVTVSS VL: DILLTQSPDILSVSPGERVSFSCRASQSIGTSIHWYQQRTNGSPRLLIKYVSESFSGTPSRFSGSGSGTAFTLTINSVESEDIADYYCQQTHSWPWTFGGGTKLEIK    0.122

// below: OD450 nm requested for another binder
Input line: Can you look up the measured OD450 nm of c67A2E1D10 (antibody, V domains shown) VH: EVQLQQSGAELVKPGASVKLSCTASGFNIKNYYMHWVKQRTEEGLEWIGRIDPEDGETKYAPKFQAKATITADTSSNTAYLQLSSLTSEDTAVYFCARKGYYGNYGAWFAYWGQGTLVTVSA VL: DIQMTQSPASLSVSVGETVTITCRASEDLYSNLAWYQQKQGKSPQLLVYAATFLADGVPSRFSGSGSGTQYSLKINSLQSEDFGNYYCQHFWGTPPTFGGGTKLEIK for me?
Output line: 0.0848
